# Test system: MAPKAPK2
# reported conditions: concentration: 1 μM, replicates: in singlicate; n = 1;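 further: KINOMEscan kinase panel screen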
recorded metric: %Inh (%)
Numbers only here, please. The scale is %.

Please report the recorded %Inh for COC(=O)c1cccc(NC(=O)NC2CCN(c3ccnc(Nc4ccc(OC)cc4)n3)C2)c1 (stereo not drawn) .
14

Similarly, COC(=O)C(NC(=O)NC1CCN(c2ccnc(Nc3ccc(F)cc3)n2)C1)c1ccccc1 (stereo not drawn) ?
18

Similarly, COc1ccc(Nc2nccc(N3CCC(NC(=O)C(C)c4ccc(Cl)cc4)C3)n2)cc1 (stereo not drawn) ?
32

Similarly, CCCCc1nn2ncccc2c1-c1ccnc(NC2CC2)n1 ?
0

Similarly, CNc1cc(-c2ccc3c(N)n[nH]c3c2)nc(N)n1 ?
49

Similarly, COc1cccc(NC(=O)Nc2ccc(C)c(-c3ccc(C(=O)Nc4ccncc4)cc3)c2)c1 ?
5

Similarly, CNC(=O)c1ccc(C)c(-n2c(C)cc(OCc3ccc(F)cc3F)c(Br)c2=O)c1 ?
0

Similarly, COC(=O)C(Cc1ccccc1)NC(=O)NC1CCN(c2ccnc(Nc3ccc(F)cc3)n2)C1 (stereo not drawn) ?
21

Similarly, Fc1ccc(-c2nn3cccc(F)c3c2-c2ccncc2)cc1 ?
29

Similarly, O=c1cc(N2CCOCC2)nc2n(Cc3cccc(Cl)c3Cl)c3ccccc3n12 ?
32

Similarly, Cc1nccc(-c2c(-c3ccc(F)cc3)ncn2CCCN2CCOCC2)n1.Cl ?
0

Similarly, Nc1ncnc2occ(-c3ccc4c(c3)CCN4C(=O)Cc3cc(F)ccc3F)c12 ?
11

Similarly, COc1ccc(CSc2nnc(-c3ccc4ncsc4c3)o2)cc1C(F)(F)F ?
0

Similarly, CC(=O)c1c(C)c2cnc(Nc3ccc(N4CCNCC4)cn3)nc2n(C2CCCC2)c1=O ?
0

Similarly, COc1ccc(Nc2nccc(NCCNC(=O)Nc3cc(C)ccc3C)n2)cc1 ?
15

Similarly, c1ccc(-c2ccnc3[nH]ccc23)cc1 ?
26

Similarly, COC(=O)c1cccc(NC(=O)NC2CCN(c3ccnc(Nc4ccc(F)cc4)n3)C2)c1 (stereo not drawn) ?
15

Similarly, Cc1ccccc1-c1cc(-c2c[nH]nc2-c2ccccn2)ccn1 ?
24

* * *

# System: CSNK2A2
# reported conditions: concentration: 1 μM, replicates: in singlicate; n = 1
Returns one of class 1 or class 0; class 1 when %Inh is >= 6%.

I'd appreciate it if you could say whether COc1ccc(CSc2nnc(-c3ccc4nccn4c3)o2)cc1C(F)(F)F has %Inh at least equal to 6%.
class 1

Similarly, O=c1cc(N2CCOCC2)nc2n(Cc3cccc(Cl)c3Cl)c3ccccc3n12 [GSK2299009] ?
class 1

Similarly, Cc1c(Cn2c3ccccc3n3c(=O)cc(N4CCOCC4)nc23)cccc1C(F)(F)F [GSK2306394] ?
class 1

Similarly, CC(C)c1ccc(O)cc1Nc1ccnc2ccc(C(F)(F)F)cc12 [GW482059] ?
class 0

* * *

# System: IKK-alpha
# Construct: gene CHUK
# reported conditions: concentration: 1 μM, replicates: in singlicate; n = 1
Please provide measured %Inh for the entries that follow.
Numbers only here, please. The scale is %.

Please report the recorded %Inh for CC[C@@H]1CO[C@H](C(=O)Nc2ccccc2)CN1c1cc(-c2ccc3c(N)n[nH]c3c2)nc(NC)n1 [GSK2376236] .
0

Similarly, CNc1cc(-c2ccc3c(N)n[nH]c3c2)nc(N)n1 [GSK2224810] ?
6

Similarly, Cc1ccc(NC(=O)Nc2ccccc2F)cc1-c1ccc(C(=O)Nc2ccncc2)cc1 [GSK1398477] ?
0

Similarly, O=C1NC(=O)C(c2ccc(Cl)cc2)=C1Nc1ccc(O)cc1 [SB-340867] ?
0

Similarly, CC(=O)c1c(C)c2cnc(Nc3ccc(N4CCNCC4)cn3)nc2n(C2CCCC2)c1=O ?
0

Similarly, Cc1nccc(-c2c(-c3ccc(F)cc3)ncn2CCCN2CCOCC2)n1.Cl [SB-282975] ?
14

Similarly, COC(=O)c1cccc(NC(=O)NC2CCN(c3ccnc(Nc4ccc(OC)cc4)n3)C2)c1 (centres unmarked) [GSK1379746] ?
44

Similarly, Cl.Cl.Cl.N#Cc1ccc(CCNc2nccc(-c3cccc(CN4CCNCC4)c3)n2)cc1 [GSK2137462] ?
0
